# Test system: MDA-MB-436
# assay.overview: Growth inhibition of cell lines treated with 2X-121
# Type: cell-based
# condition: Homo sapiens; cell line MDA-MB-436, origin Breast; read-out: Measured growth inhibition IC50
metric.name: pIC50
To interpret pIC50, take it as minus log10 of a concentration measured in moles per litre.

Looking up `O=c1[nH]nc2c3c(cccc13)N=C(CN1Cc3ccccc3C1)N2` , I found its pIC50 recorded as 6.72

* * *

# Tested on: HEC-151
# assay.overview: Growth inhibition of cell lines treated with 2X-121
# Format: cell-based
# condition: cell line HEC-151, origin Endometrial; read-out: Measured growth inhibition IC50
metric.name: IC50
Answer format: number, then unit.

Looking up O=c1[nH]nc2c3c(cccc13)N=C(CN1Cc3ccccc3C1)N2 [2X-121] , I found its IC50 recorded as 1440 nM

* * *

# Tested on: NCI-H146
# assay.overview: Growth inhibition of cell lines treated with 2X-121
# Type: cell-based
# condition: Homo sapiens; cell line NCI-H146, origin SCLC; read-out: Measured growth inhibition IC50
metric.name: IC50 (nM)
Express the result in nM but write the number alone.

# IC50 measured on NCI-H146 for item O=c1[nH]nc2c3c(cccc13)N=C(CN1Cc3ccccc3C1)N2 [2X-121] = 930

* * *

# System: HT-1080
# assay.overview: Growth inhibition of cell lines treated with 2X-121
# Type: cell-based
# condition: Homo sapiens; cell line HT-1080, origin Fibrosarcoma; read-out: Measured growth inhibition IC50
metric.name: IC50 (nM)
Express the result in nM but write the number alone.

Looking up `O=c1[nH]nc2c3c(cccc13)N=C(CN1Cc3ccccc3C1)N2` , I found its IC50 recorded as 830

* * *

# Test system: MCF-7
# assay.overview: Growth inhibition of cell lines treated with 2X-121
# Assay type: cell-based
# condition: Homo sapiens, MCF7; cell line MCF-7, origin Breast; read-out: Measured growth inhibition IC50
metric.name: pIC50
To interpret pIC50, take it as minus log10 of a concentration measured in moles per litre.

Looking up `O=c1[nH]nc2c3c(cccc13)N=C(CN1Cc3ccccc3C1)N2` , I found its pIC50 recorded as 5.72

* * *

# System: THP-1
# assay.overview: Growth inhibition of cell lines treated with 2X-121
# Format: cell-based
# condition: Homo sapiens; cell line THP-1, origin AML; read-out: Measured growth inhibition IC50
metric.name: pIC50
To interpret pIC50, take it as minus log10 of a concentration measured in moles per litre.

# pIC50 measured on THP-1 for item O=c1[nH]nc2c3c(cccc13)N=C(CN1Cc3ccccc3C1)N2 [2X-121] = 5.27
